Molecular target: TLR8 (Homo sapiens)
Sequence (Q9NR97 27-1041): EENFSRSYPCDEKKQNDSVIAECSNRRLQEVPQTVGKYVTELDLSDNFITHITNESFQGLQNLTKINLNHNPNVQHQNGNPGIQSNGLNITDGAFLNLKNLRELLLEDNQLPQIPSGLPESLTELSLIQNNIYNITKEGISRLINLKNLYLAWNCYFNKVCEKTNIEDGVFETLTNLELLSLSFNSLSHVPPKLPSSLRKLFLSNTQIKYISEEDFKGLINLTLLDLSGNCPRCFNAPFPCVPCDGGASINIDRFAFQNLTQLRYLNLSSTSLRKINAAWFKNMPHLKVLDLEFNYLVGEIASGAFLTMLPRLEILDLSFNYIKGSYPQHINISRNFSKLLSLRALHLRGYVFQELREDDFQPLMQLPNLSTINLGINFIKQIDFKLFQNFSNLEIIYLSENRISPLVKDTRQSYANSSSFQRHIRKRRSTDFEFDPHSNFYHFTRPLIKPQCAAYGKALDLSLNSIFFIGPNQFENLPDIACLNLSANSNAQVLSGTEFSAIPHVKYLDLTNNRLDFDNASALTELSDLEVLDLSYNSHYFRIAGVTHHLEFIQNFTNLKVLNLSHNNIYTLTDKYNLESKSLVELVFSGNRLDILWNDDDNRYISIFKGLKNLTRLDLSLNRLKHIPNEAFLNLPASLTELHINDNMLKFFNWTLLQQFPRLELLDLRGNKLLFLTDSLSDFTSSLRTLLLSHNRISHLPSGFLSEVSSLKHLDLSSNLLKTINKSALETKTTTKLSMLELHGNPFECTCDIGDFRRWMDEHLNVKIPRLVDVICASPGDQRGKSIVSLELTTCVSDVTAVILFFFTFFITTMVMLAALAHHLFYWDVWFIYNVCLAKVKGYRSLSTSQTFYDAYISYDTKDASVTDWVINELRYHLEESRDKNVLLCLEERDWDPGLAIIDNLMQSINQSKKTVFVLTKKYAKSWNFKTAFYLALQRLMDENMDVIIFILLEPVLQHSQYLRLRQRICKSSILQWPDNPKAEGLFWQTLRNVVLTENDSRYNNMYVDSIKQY
Test: HEK/293 TLR8 Cell Assay
Conditions: HEK cells, R848 agonist 30 uM final concentration, Steady-Glo readout; read-out: TLR8 potency
Counter-ions that a name gives are not always drawn.
reported.metric: IC50

# annotated cases, reported IC50 shown
Cc1ncc(N2C[C@H](NC(=O)CN3CCN(C)CC3)C[C@H](C(F)(F)F)C2)c2cccnc12 [Example 70] : 75 to 150 nM
CN1CCC(F)(CNC(=O)[C@H]2CN(c3ccc(C#N)c4ncccc34)C[C@@H](C(F)(F)F)O2)CC1 (single isomer, unassigned) [Example 353] : < 75 nM
C[C@H]1C[C@@H](NC(=O)[C@@H](N)C(C)(C)O)CN(c2ccc(C(F)(F)F)c3ncccc23)C1 [Example 170] : < 75 nM
CN1CCC(O)(CC(=O)N[C@@H]2C[C@H](C(F)(F)F)CN(c3ccc(C#N)c4ncccc34)C2)CC1 [Example 73] : > 150 nM
C[C@H]1C[C@@H](NCCCS(C)(=O)=O)CN(c2ccc(C#N)c3nccnc23)C1 [Example 21] : < 75 nM
C[C@H]1C[C@@H](NC(=O)C2(N)CCCNC2)CN(c2ccc(C(F)(F)F)c3ncccc23)C1 (stereo partly shown) [Example 180] : < 75 nM
C[C@H]1C[C@@H](NC(=O)CC2(O)CCN(C)CC2)CN(c2ccc(C(F)(F)F)c3nccnc23)C1 [Example 80, hydrochloride] : < 75 nM
C[C@H]1C[C@@H](NCC(=O)N2CCOCC2)CN(c2ccc(C(F)(F)F)c3ncccc23)C1 [Example 18] : < 75 nM

Give me measured IC50, please, for this compound: C[C@@H]1CN(c2ccc(C#N)c3nccnc23)C[C@H](C(=O)N[C@@H](CO)C(=O)O)O1 [Example 321] > 150 nM

Give me measured IC50, please, for this compound: C[C@H](O)CNC(=O)[C@H]1CN(c2ccc(C#N)c3nccnc23)C[C@@H](C(F)(F)F)O1 (single isomer, unassigned) [Example 286] > 150 nM
